Target entity: NaV1.7 (Homo sapiens (Human), UniProt Q15858)
Sequence (Q15858 whole entry): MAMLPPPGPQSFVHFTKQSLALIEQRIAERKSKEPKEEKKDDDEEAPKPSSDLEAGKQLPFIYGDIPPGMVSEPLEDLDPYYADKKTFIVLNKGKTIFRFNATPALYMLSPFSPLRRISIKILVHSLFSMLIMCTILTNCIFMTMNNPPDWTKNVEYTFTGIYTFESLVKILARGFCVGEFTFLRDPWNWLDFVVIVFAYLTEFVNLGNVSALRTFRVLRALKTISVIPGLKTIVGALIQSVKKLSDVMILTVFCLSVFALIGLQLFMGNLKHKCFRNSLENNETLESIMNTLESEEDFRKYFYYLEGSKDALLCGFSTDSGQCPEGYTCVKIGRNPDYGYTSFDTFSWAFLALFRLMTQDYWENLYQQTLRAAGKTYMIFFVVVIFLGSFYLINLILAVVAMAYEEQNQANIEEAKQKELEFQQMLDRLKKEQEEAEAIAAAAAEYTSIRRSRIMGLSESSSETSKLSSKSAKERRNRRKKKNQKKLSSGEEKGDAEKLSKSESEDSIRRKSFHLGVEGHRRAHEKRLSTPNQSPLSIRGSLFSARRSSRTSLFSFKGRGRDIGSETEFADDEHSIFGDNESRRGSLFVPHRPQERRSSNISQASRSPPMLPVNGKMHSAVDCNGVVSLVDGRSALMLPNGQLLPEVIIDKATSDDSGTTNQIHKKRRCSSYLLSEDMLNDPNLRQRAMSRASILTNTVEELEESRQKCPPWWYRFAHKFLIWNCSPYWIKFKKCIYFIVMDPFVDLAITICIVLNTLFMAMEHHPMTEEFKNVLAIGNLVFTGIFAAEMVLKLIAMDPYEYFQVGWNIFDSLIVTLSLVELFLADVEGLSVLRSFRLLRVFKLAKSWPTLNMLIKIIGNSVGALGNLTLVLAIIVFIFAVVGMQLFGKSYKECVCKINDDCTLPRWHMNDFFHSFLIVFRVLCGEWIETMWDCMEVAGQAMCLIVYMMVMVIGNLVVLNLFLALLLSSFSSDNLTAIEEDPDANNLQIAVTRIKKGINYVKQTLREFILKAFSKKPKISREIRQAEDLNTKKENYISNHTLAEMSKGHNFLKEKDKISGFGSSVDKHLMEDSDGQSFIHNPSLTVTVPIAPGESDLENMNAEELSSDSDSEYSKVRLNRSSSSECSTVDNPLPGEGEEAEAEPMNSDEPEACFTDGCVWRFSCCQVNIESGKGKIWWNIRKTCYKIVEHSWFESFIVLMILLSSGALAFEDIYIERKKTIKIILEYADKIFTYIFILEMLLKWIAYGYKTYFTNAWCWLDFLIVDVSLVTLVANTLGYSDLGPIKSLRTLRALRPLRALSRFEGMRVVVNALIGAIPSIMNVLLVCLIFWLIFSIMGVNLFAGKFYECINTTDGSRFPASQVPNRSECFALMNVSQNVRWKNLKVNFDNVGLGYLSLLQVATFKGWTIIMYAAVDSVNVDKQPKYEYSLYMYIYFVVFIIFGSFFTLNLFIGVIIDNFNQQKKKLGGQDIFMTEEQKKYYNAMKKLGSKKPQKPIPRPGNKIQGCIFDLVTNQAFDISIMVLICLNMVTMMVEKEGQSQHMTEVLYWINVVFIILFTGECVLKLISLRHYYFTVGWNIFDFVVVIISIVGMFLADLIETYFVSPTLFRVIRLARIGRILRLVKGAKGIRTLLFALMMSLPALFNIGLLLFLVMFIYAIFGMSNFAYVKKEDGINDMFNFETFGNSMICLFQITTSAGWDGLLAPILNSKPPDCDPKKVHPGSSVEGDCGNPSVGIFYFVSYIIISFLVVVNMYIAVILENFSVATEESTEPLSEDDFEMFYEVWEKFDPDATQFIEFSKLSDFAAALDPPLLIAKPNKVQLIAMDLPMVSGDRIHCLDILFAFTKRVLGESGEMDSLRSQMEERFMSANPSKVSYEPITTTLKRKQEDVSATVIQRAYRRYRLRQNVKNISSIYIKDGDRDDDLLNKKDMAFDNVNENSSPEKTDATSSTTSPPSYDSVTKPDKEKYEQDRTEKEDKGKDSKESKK
Protocol notes: Automated electrophysiology, IonWorks Barracuda population patch clamp, NaV1.7 current (inactivated-state protocol)
Settings: HEK 293 cells expressing NaV1.7; 600 sec compound incubation; read-out: NaV1.7 Barra IC50
Please use criterion met for IC50 under 300 nM and criterion not met for everything else, ties included.

Known results for compounds:
Compound	Cat
Cc1ccc(-c2cn(C)c3cc(C(=O)NS(C)(=O)=O)ccc23)cc1 [Example 10]	criterion not met
CN(C)S(=O)(=O)NC(=O)c1ccc2c(-c3ccc(C(F)F)cc3)cn(C)c2c1 [Example 32]	criterion not met
CC(C)COc1ncc(-c2c3ccc(C(=O)NS(=O)(=O)C4CC4)cc3nn2C)cc1Cl [Example 41]	criterion met

Incoming: Dear reviewer, please state whether COc1ncccc1-c1cn(C)c2cc(C(=O)NS(C)(=O)=O)ccc12 [Example 6] has IC50 strictly beneath 300 nM.
Outgoing: criterion not met

Incoming: Strictly below 300 nM in IC50? CC(C)COc1ncc(-c2cn(C)c3cc(C(=O)NS(C)(=O)=O)ccc23)cc1Cl [Example 2]
Outgoing: criterion met

Incoming: Regarding Cn1cc(-c2cccc(C(F)(F)F)c2)c2ccc(C(=O)NS(C)(=O)=O)cc21 [Example 13] , kindly confirm whether its IC50 is beneath 300 nM.
Outgoing: criterion not met

Incoming: Decide: IC50 of CC(C)COc1ncc(-c2cn(CC(C)C)c3cc(C(=O)NS(C)(=O)=O)ccc23)cc1Cl [Example 27] strictly below 300 nM?
Outgoing: criterion not met

Incoming: Answer whether the compound CC(C)Cc1ccc(-c2cn(C)c3cc(C(=O)NS(C)(=O)=O)ccc23)cc1 [Example 12] has IC50 strictly less than 300 nM
Outgoing: criterion not met

Incoming: Is IC50 strictly under 300 nM for the entry Cn1cc(-c2cncc(F)c2)c2ccc(C(=O)NS(C)(=O)=O)cc21 [Example 7] ?
Outgoing: criterion not met

Incoming: Regarding Cn1cc(-c2ccc(C(F)F)cc2)c2cc(F)c(C(=O)NS(=O)(=O)C3CC3)cc21 [Example 49] , kindly confirm whether its IC50 is beneath 300 nM.
Outgoing: criterion met

Incoming: Lab log: compare recorded IC50 with 300 nM; is it strictly lower for CC(C)COc1ccc(-c2cn(C)c3cc(C(=O)NS(C)(=O)=O)c(F)cc23)cn1 [Example 44] ?
Outgoing: criterion met

Incoming: Could you please tell me whether IC50 recorded for Cc1cccc(-c2cn(C)c3cc(C(=O)NS(C)(=O)=O)ccc23)c1 [Example 15] is less than 300 nM?
Outgoing: criterion not met

###

Documented pIC50 across a set of compounds
Target entity: NaV1.7 (Homo sapiens (Human))
Protocol notes: Automated electrophysiology, IonWorks Barracuda population patch clamp, NaV1.7 current (inactivated-state protocol)
Settings: HEK 293 cells expressing NaV1.7; 600 sec compound incubation; read-out: NaV1.7 Barra IC50
Please note pIC50 is a logarithmic value: minus log10 of concentration in mol/L. Answer with that number alone.

Sample records with pIC50:
CCc1cccc(-c2cn(C)c3cc(C(=O)NS(C)(=O)=O)ccc23)c1 6.66
CC(C)COc1ncc(-c2cn(C)c3cc(C(=O)NS(=O)(=O)N4CCCCC4)ccc23)cc1Cl 5.38

API: the following record is the query input.
// pIC50 lookup, compound = `CCS(=O)(=O)NC(=O)c1ccc2c(-c3cnc(OCC(C)C)c(Cl)c3)cn(C)c2c1` , result: 6.81

###

Target entity: hNaV1.7 (Homo sapiens (Human), UniProt Q15858)
Sequence (Q15858 whole entry): as above
Parameter measured: IC50 (nM)
Give the value in nM but do not write nM after it.

Some molecules with known IC50 results, for comparison:
CC(C)COc1ncc(-c2cn(C)c3cc(C(=O)NS(C)(=O)=O)c(F)cc23)cc1Cl 11
Cn1cc(-c2ccc(OC(F)(F)F)cc2)c2ccc(C(=O)NS(C)(=O)=O)cc21 243
Cn1cc(-c2cccc(F)c2F)c2ccc(C(=O)NS(C)(=O)=O)cc21 4940
Cc1cccc(-c2cn(C)c3cc(C(=O)NS(C)(=O)=O)ccc23)c1 943
Cn1cc(-c2ccc(C(F)(F)F)cc2)c2ccc(C(=O)NS(=O)(=O)c3cccs3)cc21 361
Cn1cc(-c2cccc(C(F)(F)F)c2)c2ccc(C(=O)NS(C)(=O)=O)cc21 290

Measured IC50 for this entry `CC(C)c1cccc(-c2cn(C)c3cc(C(=O)NS(C)(=O)=O)ccc23)c1` on hNaV1.7 (Homo sapiens (Human), UniProt Q15858): 217

###

Target entity: NaV1.5 (Homo sapiens (Human))
Protocol notes: Automated electrophysiology, IonWorks Barracuda population patch clamp, NaV1.5 current (inactivated-state protocol)
Format: cell-based
Settings: HEK 293 cells expressing NaV1.5; read-out: NaV1.5 Barra IC50
# maps each entry to its IC50
Report the value in µM with no unit label.

In the examples that follow, each entry is paired with its recorded IC50.
Cn1cc(-c2ccc(C(F)(F)F)cc2)c2ccc(C(=O)NS(=O)(=O)c3cccs3)cc21 3.86
CC(C)COc1ncc(-c2cn(C)c3cc(C(=O)NS(=O)(=O)N(C)C)ccc23)cc1Cl 6.33
Cn1cc(-c2cnc(OCC3CC3)c(Cl)c2)c2ccc(C(=O)NS(=O)(=O)C3CC3)cc21 15.1
Cn1cc(-c2ccc(C(F)(F)F)cc2)c2ccc(C(=O)NS(=O)(=O)C3CC3)cc21 8.72
Cn1cc(-c2ccc(C(F)(F)F)cc2)c2ccc(C(=O)NS(C)(=O)=O)cc21 19.6

Bench note, NaV1.5 (Homo sapiens (Human)): entry `Cn1cc(-c2ccc(C(F)(F)F)cc2)c2ccc(C(=O)NS(=O)(=O)C(F)(F)F)cc21` , its IC50 = 7.48

Sample `CC(C)COc1ncc(-c2cn(C)c3cc(C(=O)NS(C)(=O)=O)ccc23)cc1Cl` , system: NaV1.5 (Homo sapiens (Human)). Its IC50 is 18.3

Summary line: `CC(C)COc1ncc(-c2nn(C)c3cc(C(=O)NS(C)(=O)=O)ccc23)cc1Cl` , NaV1.5 (Homo sapiens (Human)), reported IC50 = 6.51

Value sought: IC50, system NaV1.5 (Homo sapiens (Human)), item `Cn1cc(-c2ccc(OC(F)(F)F)cc2)c2ccc(C(=O)NS(C)(=O)=O)cc21` . Result: 18.3

# lookup: `CC(C)COc1ncc(-c2cn(CC(C)C)c3cc(C(=O)NS(=O)(=O)C4CC4)ccc23)cc1Cl` on NaV1.5 (Homo sapiens (Human)), IC50 = 11.3

###

The molecules below have reported IC50 for hNaV1.7 (Homo sapiens (Human), UniProt Q15858).
Please reply with the bare figure in µM and do not write the unit itself.

Item `CCc1ccc(-c2cn(C)c3cc(C(=O)NS(C)(=O)=O)ccc23)cc1` ; assay system hNaV1.7 (Homo sapiens (Human), UniProt Q15858); IC50 reported as 0.554

Fill in: hNaV1.7 (Homo sapiens (Human), UniProt Q15858) IC50 for `Cn1cc(-c2ccc(C(F)F)cc2)c2ccc(C(=O)NS(C)(=O)=O)cc21` = 1.01

With hNaV1.7 (Homo sapiens (Human), UniProt Q15858) as the test system, `CCc1cccc(-c2cn(C)c3cc(C(=O)NS(C)(=O)=O)ccc23)c1` showed IC50 of 0.44

Short answer on hNaV1.7 (Homo sapiens (Human), UniProt Q15858) for `CC(C)COc1ccc(-c2cn(C)c3cc(C(=O)NS(=O)(=O)C4CC4)c(F)cc23)cn1` , IC50: 0.026

Reading of IC50 for `CC(C)COc1ccc(-c2cn(C)c3cc(C(=O)NS(C)(=O)=O)ccc23)cn1` with hNaV1.7 (Homo sapiens (Human), UniProt Q15858): 0.468

# value of IC50, hNaV1.7 (Homo sapiens (Human), UniProt Q15858), item `Cn1cc(-c2ccc(C(F)(F)F)cc2)c2cc(F)c(C(=O)NS(C)(=O)=O)cc21` = 0.084

hNaV1.7 (Homo sapiens (Human), UniProt Q15858) assay, molecule `Cn1cc(-c2ccc(C(F)(F)F)cc2)c2ccc(C(=O)NS(C)(=O)=O)cc21` , recorded IC50 = 0.422

Here `CCS(=O)(=O)NC(=O)c1ccc2c(-c3cnc(OCC(C)C)c(Cl)c3)cn(C)c2c1` was tested on hNaV1.7 (Homo sapiens (Human), UniProt Q15858), and its IC50 came to 0.038

###

Target entity: NaV1.5 (Homo sapiens (Human), UniProt Q14524)
Sequence (Q14524 whole entry): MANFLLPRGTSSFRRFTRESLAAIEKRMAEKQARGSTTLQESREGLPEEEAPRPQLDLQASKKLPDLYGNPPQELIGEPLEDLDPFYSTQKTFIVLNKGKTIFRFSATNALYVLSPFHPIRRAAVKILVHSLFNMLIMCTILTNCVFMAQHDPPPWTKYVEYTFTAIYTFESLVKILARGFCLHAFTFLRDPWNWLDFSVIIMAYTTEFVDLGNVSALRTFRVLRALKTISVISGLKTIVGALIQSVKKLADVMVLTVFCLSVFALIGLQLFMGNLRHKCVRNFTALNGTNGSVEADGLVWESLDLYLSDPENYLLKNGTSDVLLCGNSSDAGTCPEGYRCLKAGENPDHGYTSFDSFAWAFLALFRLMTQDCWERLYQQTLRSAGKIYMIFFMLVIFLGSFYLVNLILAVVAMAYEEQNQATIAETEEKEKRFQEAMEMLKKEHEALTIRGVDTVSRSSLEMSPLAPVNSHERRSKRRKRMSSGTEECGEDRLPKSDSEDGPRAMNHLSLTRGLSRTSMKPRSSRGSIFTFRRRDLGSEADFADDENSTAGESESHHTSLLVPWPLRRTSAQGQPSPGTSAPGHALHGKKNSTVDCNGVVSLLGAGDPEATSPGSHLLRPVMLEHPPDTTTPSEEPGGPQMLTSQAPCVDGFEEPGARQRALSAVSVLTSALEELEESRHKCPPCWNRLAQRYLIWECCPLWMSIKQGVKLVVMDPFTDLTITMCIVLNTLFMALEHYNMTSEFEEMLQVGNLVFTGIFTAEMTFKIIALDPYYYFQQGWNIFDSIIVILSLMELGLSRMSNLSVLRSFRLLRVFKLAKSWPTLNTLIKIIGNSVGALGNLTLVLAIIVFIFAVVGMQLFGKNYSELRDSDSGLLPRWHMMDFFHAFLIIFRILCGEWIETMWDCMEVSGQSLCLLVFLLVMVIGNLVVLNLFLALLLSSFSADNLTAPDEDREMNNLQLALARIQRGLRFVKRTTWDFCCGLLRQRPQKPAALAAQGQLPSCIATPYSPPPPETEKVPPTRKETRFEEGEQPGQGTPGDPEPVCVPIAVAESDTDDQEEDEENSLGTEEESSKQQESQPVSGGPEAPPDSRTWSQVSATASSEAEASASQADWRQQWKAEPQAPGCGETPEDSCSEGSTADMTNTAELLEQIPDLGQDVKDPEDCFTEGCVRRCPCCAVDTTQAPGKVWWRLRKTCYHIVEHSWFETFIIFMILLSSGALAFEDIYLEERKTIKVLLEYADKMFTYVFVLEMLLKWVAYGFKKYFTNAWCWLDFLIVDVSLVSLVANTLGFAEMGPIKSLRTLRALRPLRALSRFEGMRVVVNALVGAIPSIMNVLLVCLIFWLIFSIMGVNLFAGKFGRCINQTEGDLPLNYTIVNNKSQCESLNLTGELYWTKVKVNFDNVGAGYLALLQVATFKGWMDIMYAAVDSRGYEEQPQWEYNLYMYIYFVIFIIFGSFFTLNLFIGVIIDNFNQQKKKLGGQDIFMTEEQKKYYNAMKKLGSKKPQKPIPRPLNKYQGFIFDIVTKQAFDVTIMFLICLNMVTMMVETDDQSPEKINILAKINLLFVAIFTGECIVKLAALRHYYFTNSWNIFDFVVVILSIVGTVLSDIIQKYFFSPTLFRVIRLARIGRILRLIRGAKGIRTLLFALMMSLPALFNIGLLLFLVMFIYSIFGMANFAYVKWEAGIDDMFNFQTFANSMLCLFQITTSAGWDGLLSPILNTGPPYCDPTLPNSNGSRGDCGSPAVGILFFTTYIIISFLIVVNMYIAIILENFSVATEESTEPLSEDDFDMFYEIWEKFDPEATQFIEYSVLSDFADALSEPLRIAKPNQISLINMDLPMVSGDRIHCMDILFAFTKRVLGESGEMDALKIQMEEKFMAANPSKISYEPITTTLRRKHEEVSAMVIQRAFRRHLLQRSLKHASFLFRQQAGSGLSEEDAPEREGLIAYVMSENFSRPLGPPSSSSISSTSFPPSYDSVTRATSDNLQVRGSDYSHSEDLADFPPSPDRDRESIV
Protocol notes: Automated electrophysiology, IonWorks Barracuda population patch clamp, NaV1.5 current (inactivated-state protocol)
Type: cell-based
Settings: HEK 293 cells expressing NaV1.5; read-out: NaV1.5 Barra IC50
Overview of recorded pIC50 for various molecules
// pIC50 is dimensionless: -log10 of concentration (M)

Molecule	pIC50
CC(C)COc1ncc(-c2cn(C)c3cc(C(=O)NS(=O)(=O)C(C)C)ccc23)cc1Cl [Example 37]	4.85
CC(C)COc1ncc(-c2cn(C)c3cc(C(=O)NS(C)(=O)=O)c(F)cc23)cc1Cl [Example 42]	5.14
CC(C)COc1ccc(-c2cn(C)c3cc(C(=O)NS(C)(=O)=O)c(F)cc23)cn1 [Example 44]	4.73
Cn1cc(-c2ccc(C(F)(F)F)cc2Cl)c2ccc(C(=O)NS(C)(=O)=O)cc21 [Example 11]	5.06

// moving on: another record for pIC50
// field: pIC50; key: CN(C)S(=O)(=O)NC(=O)c1ccc2c(-c3ccc(C(F)(F)F)cc3)cn(C)c2c1 [Example 33] ; value = 4.61
